- Test Method Notes: Toxicokinetic study, 14-day repeated intraperitoneal administration in Sprague-Dawley rats
- Format: in vivo
- Settings: male, Sprague-Dawley, rat, in vivo, ip, 5 mg/kg/day, Cmax
Readout Kind: Cmax at 14 day (ng/mL)
Answers are plain numbers, in ng/mL.

Exercise: Cmax at 14 day lookup needed for CO[C@@H]1C[C@@H](C[C@H]2CC[C@H](C)[C@H]([C@@H](C)C(=O)O)O2)O[C@]2(O[C@](C)([C@H]3CC[C@@](C)([C@@H]4O[C@@H]([C@H]5O[C@@](O)(CO)[C@H](C)C[C@@H]5C)C[C@@H]4C)O3)C[C@H]2C)[C@@H]1C [nigericin] , thanks.
Key: 3060

###

- Test Method Notes: Toxicokinetic study, 14-day repeated intraperitoneal administration in Sprague-Dawley rats
- Format: in vivo
- Settings: male, Sprague-Dawley, rat, in vivo, ip, 1.5 mg/kg/day, AUClast
Readout Kind: AUC(0-t) (ng·h/mL)
Give bare numbers, in ng·h/mL.

Exercise: AUC(0-t) lookup needed for CO[C@@H]1C[C@@H](C[C@H]2CC[C@H](C)[C@H]([C@@H](C)C(=O)O)O2)O[C@]2(O[C@](C)([C@H]3CC[C@@](C)([C@@H]4O[C@@H]([C@H]5O[C@@](O)(CO)[C@H](C)C[C@@H]5C)C[C@@H]4C)O3)C[C@H]2C)[C@@H]1C , thanks.
Key: 1920
